SYSTEM NAME: T1, β-catenin (UniProt P35222 134-665, limits assumed, biotinylated in the SPR and plate assays)
T1 sequence (looked up): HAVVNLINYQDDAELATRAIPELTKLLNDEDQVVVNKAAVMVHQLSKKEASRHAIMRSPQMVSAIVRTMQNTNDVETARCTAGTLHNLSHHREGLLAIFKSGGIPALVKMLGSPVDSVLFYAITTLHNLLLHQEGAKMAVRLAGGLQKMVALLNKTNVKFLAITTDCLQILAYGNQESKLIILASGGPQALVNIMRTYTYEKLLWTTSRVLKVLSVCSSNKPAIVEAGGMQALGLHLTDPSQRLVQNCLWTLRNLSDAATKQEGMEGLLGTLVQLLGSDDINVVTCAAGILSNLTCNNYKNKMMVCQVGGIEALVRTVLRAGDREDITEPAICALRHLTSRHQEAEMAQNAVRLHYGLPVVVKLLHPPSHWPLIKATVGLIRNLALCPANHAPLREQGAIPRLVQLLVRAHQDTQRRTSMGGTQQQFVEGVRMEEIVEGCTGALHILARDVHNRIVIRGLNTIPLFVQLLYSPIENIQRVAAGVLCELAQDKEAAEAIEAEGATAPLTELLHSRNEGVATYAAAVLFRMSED
METHOD SUMMARY: cell-based or functional assay
Bridges are numbered along the chain shown (N, C = ends). Where no end group is shown, it is not given here. [ ]: non-standard residue; d: D form. αMeV = CC(C)[C@](C)(N)C(=O)O; αMeS = C[C@](N)(CO)C(=O)O
ATTRIBUTE MEASURED: Wnt Reporter EC50

Examples with their reported Wnt Reporter EC50 follow.
BINDER: [Ado]MWFLICFWD-OH (lactam N-10) [SEQ ID NO: 190]
Wnt Reporter EC50: ≤ 7.5 µM
//
BINDER: H-KMWILICFWG-OH [SEQ ID NO: 113]
Wnt Reporter EC50: > 30 µM
//
BINDER: WSRMWFLISFW-NH2 [SEQ ID NO: 79]
Wnt Reporter EC50: > 30 µM

Value lookup for Wnt Reporter EC50; key = Ac-MWILISFWG-OH [SEQ ID NO: 165]
≤ 7.5 µM

Value lookup for Wnt Reporter EC50; key = XMWFLICFWD (HELM PEPTIDE1{[O=C(CCCCCN[*:1])[*:2]].M.W.F.L.I.C.F.W.D}$PEPTIDE1,PEPTIDE1,1:R1-10:R3$$$V2.0; SMILES CC[C@H](C)[C@@H]1NC(=O)[C@H](CC(C)C)NC(=O)[C@H](Cc2ccccc2)NC(=O)[C@H](Cc2c[nH]c3ccccc23)NC(=O)[C@H](CCSC)NC(=O)CCCCCNC(=O)C[C@@H](C(=O)O)NC(=O)[C@H](Cc2c[nH]c3ccccc23)NC(=O)[C@H](Cc2ccccc2)NC(=O)[C@H](CS)NC1=O) [SEQ ID NO: 189]
≤ 7.5 µM

Value lookup for Wnt Reporter EC50; key = MSRMAFLISFWG (HELM PEPTIDE1{M.S.R.M.[meA].F.L.I.S.F.W.G}$$$$V2.0; SMILES CC[C@H](C)[C@H](NC(=O)[C@H](CC(C)C)NC(=O)[C@H](Cc1ccccc1)NC(=O)[C@H](C)N(C)C(=O)[C@H](CCSC)NC(=O)[C@H](CCCNC(=N)N)NC(=O)[C@H](CO)NC(=O)[C@@H](N)CCSC)C(=O)N[C@@H](CO)C(=O)N[C@@H](Cc1ccccc1)C(=O)N[C@@H](Cc1c[nH]c2ccccc12)C(=O)NCC(=O)O) [SEQ ID NO: 50]
> 30 µM

Value lookup for Wnt Reporter EC50; key = H-MWESILDEH[αMeV]QRVWG-NH2 [SEQ ID NO: 34]
> 30 µM

Value lookup for Wnt Reporter EC50; key = Ac-MWFLISFWG-OH [SEQ ID NO: 219]
≤ 7.5 µM

Value lookup for Wnt Reporter EC50; key = H-MWE[αMeS]ILDEHVQRVWG-NH2 [SEQ ID NO: 35]
> 30 µM
